# METHOD SUMMARY: Approximate solubility in various solvents at room temperature
# Assay type: physicochemical
# MEASUREMENT SETUP: toluene, organic solvent or mixture, thermodynamic from solid
REPORTED ENDPOINT: solubility at 1 day

stdin: Give a short answer stating reported solubility at 1 day for C[C@]1(C(N)=O)CC[C@@H](n2c(Nc3c(Cl)cc(Cl)cc3Cl)nc3cnc(N[C@@H]4CCOC[C@H]4F)nc32)CC1 [Form A] .
stdout: > 10000 µg/mL

###

# System: cancer cell lines
# METHOD SUMMARY: Multiplexed cytotoxicity assay: cell proliferation (relative cell count IC50, GI50)
# Assay type: cell-based
# MEASUREMENT SETUP: BCP-1, BCP1 (Hematopoietic and lymphoid, Lymphoma)
REPORTED ENDPOINT: pIC50
Keep in mind that pIC50 stands for -log10 of concentration in molar terms.

stdin: Using the record for C[C@]1(C(N)=O)CC[C@@H](n2c(Nc3c(Cl)cc(Cl)cc3Cl)nc3cnc(N[C@@H]4CCOC[C@H]4F)nc32)CC1 [Compound 1] , state its measured pIC50.
stdout: 7.10

###

# System: 64 cancer cell lines
# METHOD SUMMARY: Anti-proliferative activity across a panel of 64 cancer cell lines (CellTiter-Glo)
# Assay type: cell-based
# MEASUREMENT SETUP: Homo sapiens, Hep3B, 72 h, Hep3B (Liver)
REPORTED ENDPOINT: pIC50
# log scale: pIC50 equals minus log10 of the concentration in mol/L

stdin: Answer with the recorded pIC50 for the compound listed here: C[C@]1(C(N)=O)CC[C@@H](n2c(Nc3c(Cl)cc(Cl)cc3Cl)nc3cnc(N[C@@H]4CCOC[C@H]4F)nc32)CC1 [Compound 1]
stdout: 7.83

###

# METHOD SUMMARY: Approximate solubility in various solvents at room temperature
# Type: physicochemical
# MEASUREMENT SETUP: 1,4-dioxane, organic solvent or mixture, thermodynamic from solid, 1,4-dioxane
REPORTED ENDPOINT: solubility at 1 day

stdin: Give reported solubility at 1 day value for C[C@]1(C(N)=O)CC[C@@H](n2c(Nc3c(Cl)cc(Cl)cc3Cl)nc3cnc(N[C@@H]4CCOC[C@H]4F)nc32)CC1 [Form A]
stdout: > 50 mg/mL

###

# Tested on: cancer cell lines
# METHOD SUMMARY: Multiplexed cytotoxicity assay: cell proliferation (relative cell count IC50, GI50)
# Type: cell-based
# MEASUREMENT SETUP: Hs 445, HS445 (Hematopoietic and lymphoid, Lymphoma)
REPORTED ENDPOINT: IC50 (nM)
Write down the numeric answer in nM and omit the unit.

stdin: Recall the reported IC50 of `C[C@]1(C(N)=O)CC[C@@H](n2c(Nc3c(Cl)cc(Cl)cc3Cl)nc3cnc(N[C@@H]4CCOC[C@H]4F)nc32)CC1` on cancer cell lines and write it down.
stdout: 37.7

###

# Test system: pRSK1 S380 in LOX-IMVI cells
# METHOD SUMMARY: pRSK1 S380 Mesoscale assay in LOX-IMVI
# Assay type: cell-based
# MEASUREMENT SETUP: Homo sapiens, 2 h treatment, n = 3
REPORTED ENDPOINT: IC50 (nM)
Response body: numeric value in nM, unit text excluded.

stdin: Please supply the value of reported IC50 for the item `C[C@]1(C(N)=O)CC[C@@H](n2c(Nc3c(Cl)cc(Cl)cc3Cl)nc3cnc(N[C@@H]4CCOC[C@H]4F)nc32)CC1`
stdout: 38
